Field: pIC50. System: Beta-secretase 1 (Homo sapiens, UniProt P56817). Provenance: assorted publications.
Bear in mind: pIC50 is minus log10 of a mol/L concentration; give just that figure.

Solved cases below.
NC1=N[C@]2(c3cc(-c4cccnc4F)ccc3Oc3c2cc(C2=CCCOC2)nc3F)c2cnccc21 : 9.30
NC1=N[C@@]2(c3ccc(F)cc3F)CO[C@@H](c3nc4ccncc4o3)C[C@H]2CS1 : 5.30
NC1=N[C@@]2(c3ccc(F)cc3F)CO[C@@H](c3cnn(CC(F)(F)F)c3)C[C@H]2CS1 : 7.14
N#Cc1cccc(-c2ccc3c(c2)[C@]2(CCOC(N)=N2)c2cc(-c4ccnc(F)c4)nc(F)c2O3)c1 : 6.77
COc1cnc(C(=O)Nc2ccc3c(c2)[C@@]2(CCOC(N)=N2)c2cc(-c4ccnc(F)c4)cc(F)c2O3)cn1 : 8.19
NC1=N[C@@]2(COC1)c1cc(Br)ccc1Oc1cnc(Cl)cc12 (single isomer, unassigned) : 5.38
COc1cnc(C(=O)Nc2ccc3c(c2)[C@@]2(CCSC(N)=N2)c2cc(Cl)nc(F)c2O3)cn1 : 8.21
NC1=N[C@]2(CCO1)c1cc(-c3cccnc3F)ccc1Oc1c2cc(-c2cccnc2F)nc1F : 5.76
NC1=N[C@@]2(CCS1)c1cc(NC(=O)c3ccc(Cl)cn3)ccc1Oc1c2cc(C2=CCCOC2)nc1F : 9.10
COC[C@H]1C[C@H]2[C@@H](C)SC(N)=N[C@@]2(c2ccc(F)cc2F)CO1 : 6.13

Reported pIC50 (Beta-secretase 1 (Homo sapiens, UniProt P56817)) for entry NC1=N[C@@]2(COC1)c1cc(-c3cncc(F)c3)ccc1Oc1cnc(C3=CCCOC3)cc12 is 9.30

Measured pIC50 (Beta-secretase 1 (Homo sapiens, UniProt P56817)), entry NC1=N[C@@]2(CCO1)c1cc(NC(=O)c3ccc(Cl)cc3F)ccc1Oc1ncc(Br)cc12 : 6.92

Test item NC1=NC2(c3cc(-c4cccnc4F)ccc3Oc3cnc(C4=CCOCC4)cc32)c2ccccc21 (racemic) ; Beta-secretase 1 (Homo sapiens, UniProt P56817); reported pIC50 was 8.52

With Beta-secretase 1 (Homo sapiens, UniProt P56817) as the test system, NC1=N[C@@]2(CCO1)c1cc(NC(=O)c3ccc(Cl)cn3)ccc1Oc1ncccc12 showed pIC50 of 7.35

----------
From various publications: log10 of IC50 for Beta-secretase 1 (Homo sapiens).
Parameter value (number): base-10 log of IC50 in nM.

Measured log10 of IC50, NC1=N[C@@]2(CCO1)c1cc(NC(=O)c3ccc(Cl)cn3)ccc1Oc1ncc(C3CC3)cc12 : 1.10

Summary for this molecule, [2H]C1([2H])OC(N)=N[C@]12c1cc(-c3ccnnc3)ccc1C[C@@]21CC[C@H](OC)[C@@H](C)C1 : log10 of IC50 is 2.54

For record [2H]C1([2H])OC(N)=NC12c1cc(CCC(C)C)ccc1C[C@@]21C[C@@H](C)[C@H](OC)[C@@H](C)C1 (stereo partly drawn) the listed log10 of IC50 is 1.13

[2H]C1([2H])OC(N)=N[C@]12c1cc(C#N)ccc1C[C@@]21CC[C@H](OC)[C@@H](C)C1 yielded log10 of IC50 of 2.28

For record COc1cc(F)c2c(c1)[C@]1(COCC(N)=N1)c1cc(-c3cccnc3F)ccc1O2 the listed log10 of IC50 is 0.18

Briefly, log10 of IC50 measured for COc1ccc2c(c1)CCC2(Cc1ccc(C(F)(F)F)nc1)c1cn(Cc2ccccc2)c(N)n1 (stereo not drawn) : 1.80
